Experiment: LTEA_HepaRG_LDH_cytotoxicity: Cytotoxicity Assessment in the Life Technologies and Expression Analysis (LTEA) Assay (AID 2283563)
Calls of active or inactive are those of the source. The calls were made as follows: active = hit-call score of the fitted dose curve at least 0.9, where 1 is the maximum; inconclusive = response in the unintended direction; inactive = score below 0.9.
Outcome codes: active, inactive

In [3]: df
Out[3]:
                                   compound  class_assignment
0  C#CCOS(=O)OC1CCCCC1Oc1ccc(C(C)(C)C)cc1 (stereo unspecified)            active
1            COP(=S)(OC)Oc1nc(Cl)c(Cl)cc1Cl          inactive
2                CC1=C(C(=O)Nc2ccccc2)SCCO1          inactive
3                COc1nc(NC(C)C)nc(NC(C)C)n1          inactive
4  CC(C)Oc1cc(-n2nc(C(C)(C)C)oc2=O)c(Cl)cc1Cl            active
5  CCON=C(CC)C1=C(O)CC(c2c(C)cc(C)cc2C)CC1=O (stereo unspecified)          inactive

----------
Biological target: human Peroxisome Proliferator-activated Receptor alpha (PPARa), PPARA (gene 5465)
Experiment: NVS_NR_hPPARa: NovaScreen (NVS) Nuclear Receptor Binding Assay for human Peroxisome Proliferator-activated Receptor alpha (PPARa) (AID 2283359);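 also: activity means loss of TR-FRET signal versus DMSO baseline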
Procedure: NVS_NR_hPPARa is a biochemical, single-readout assay that uses extracted gene-proteins in a cell-free assay. Measurements were taken 1 hour after chemical dosing in a 384-well plate.NVS_NR_hPPARa is one of one assay component(s) measured or calculated from the NVS_NR_hPPARa assay. […] This assay endpoint, NVS_NR_hPPARa, was analyzed in the positive analysis fitting direction relative to DMSO as the negative control and baseline of activity. […]
Records with an inconclusive call do not appear. The source made the active and inactive calls. The calls were made as follows: active = hit-call score of the fitted dose curve at least 0.9, where 1 is the maximum; inconclusive = response in the unintended direction; inactive = score below 0.9.
observed_property: AC50

>>> df
                                   compound  observed_property            result
0  CCCN(CCC)c1c([N+](=O)[O-])cc(S(N)(=O)=O)cc1[N+](=O)[O-]               AC50          inactive
1  C=CC1(C)OC(=O)N(c2cc(Cl)cc(Cl)c2)C1=O (stereo not given)               AC50  37.4 µM (active)
2                          CCCCNC(=O)OCC#CI               AC50  6.55 µM (active)
3                    N#Cc1cc(Br)c(O)c(Br)c1               AC50          inactive
4    COc1ccc(C(c2ccc(OC)cc2)C(Cl)(Cl)Cl)cc1               AC50          inactive

----------
Read-out: Monocyte Chemoattractant Protein-1 (MCP1), CCL2 (gene 6347)
Assay: BSK_SAg_MCP1: BioMAP Diversity Plus: SAg Assay for Monocyte Chemoattractant Protein-1 (MCP1) Biomarker Activity (AID 2283090)
Settings: primary human HUVEC with PBMC; actives raise or lower the signal
The source made the active and inactive calls. How the source made its calls: active means hit-call score of the fitted dose curve at least 0.9, where 1 is the maximum; inactive means score below 0.9.
Outcome codes: Y (active), N (inactive)

                                    compound  class_assignment
 0                        Oc1ccccc1-c1ccccc1                 N
 1    COc1ccc(C(c2ccc(OC)cc2)C(Cl)(Cl)Cl)cc1                 Y
 2                      CCNc1nc(Cl)nc(NCC)n1                 N
 3  COC(=O)N(OC)c1ccccc1COc1ccn(-c2ccc(Cl)cc2)n1                 Y
 4         CCCCNC(=O)n1c(NC(=O)OC)nc2ccccc21                 N
 5                    COC(=O)c1ccccc1C(=O)OC                 N
 6  Cc1ccc(-c2c(Cl)nc(C#N)n2S(=O)(=O)N(C)C)cc1                 Y
 7                CC1=C(C(=O)Nc2ccccc2)SCCO1                 N
 8  C=CCC1=C(C)[C@@H](OC(=O)[C@@H]2[C@@H](C=C(C)C)C2(C)C)CC1=O                 Y
 9                      CNC(=O)ON=CC(C)(C)SC                 N
10  C=CCC1=C(C)C(OC(=O)C2C(C=C(C)C)C2(C)C)CC1=O (stereo unspecified)                 Y
11  CCc1nn(C)c(C(=O)NCc2ccc(C(C)(C)C)cc2)c1Cl                 Y
12                      O=C(O)c1nc(Cl)ccc1Cl                 N
13              CON(C)C(=O)Nc1ccc(Cl)c(Cl)c1                 N
14  C#CCOS(=O)OC1CCCCC1Oc1ccc(C(C)(C)C)cc1 (stereo unspecified)                 Y
15  N#Cc1nn(-c2c(Cl)cc(C(F)(F)F)cc2Cl)c(N)c1S(=O)C(F)(F)F (stereo unspecified)                 Y
16  N#CC(CCc1ccc(Cl)cc1)(Cn1cncn1)c1ccccc1 (stereo unspecified)                 N
17  COc1nc(C)nc(NC(=O)NS(=O)(=O)c2ccccc2Cl)n1                 N
18  Cc1c(F)c(F)c(COC(=O)C2C(/C=C(\Cl)C(F)(F)F)C2(C)C)c(F)c1F (stereo unspecified)                 N
19                    N#Cc1cc(Br)c(O)c(Br)c1                 N
20                     Cc1cc(Cl)ccc1OCC(=O)O                 N
21  CC(C)C1(C)N=C(c2nc3ccccc3cc2C(=O)O)NC1=O (stereo unspecified)                 N
22  CC(Oc1ccc(Cl)cc1Cl)C(=O)O (stereo unspecified)                 N
23                                  CNC(=S)S                 N
24            COP(=S)(OC)Oc1nc(Cl)c(Cl)cc1Cl                 N
25  COc1cnc(OC)n2nc(NS(=O)(=O)c3c(OCC(F)F)cccc3C(F)(F)F)nc12                 N

----------
Assay: Tanguay_ZF_120hpf_ActivityScore_legacy: (Legacy) Oregon State University Tanguay Lab 120 Hour Post-fertilization zebrafish Assay Score for Activity (AID 2283742)
Calls of active or inactive are those of the source. Rule for the calls: active = hit-call score of the fitted dose curve at least 0.9, where 1 is the maximum; inconclusive = response in the unintended direction; inactive = score below 0.9.
Outcome codes: 1.0 = active, 0.0 = inactive

>>> df
                                    compound  class_assignment
 0  CCON=C(CC)C1=C(O)CC(c2c(C)cc(C)cc2C)CC1=O (stereo not drawn)               0.0
 1  CCc1nn(C)c(C(=O)NCc2ccc(C(C)(C)C)cc2)c1Cl               1.0
 2  CCCN(CCC)c1c([N+](=O)[O-])cc(S(N)(=O)=O)cc1[N+](=O)[O-]               0.0
 3  C=CC1(C)OC(=O)N(c2cc(Cl)cc(Cl)c2)C1=O (stereo not drawn)               0.0
 4  C=CCC1=C(C)[C@@H](OC(=O)[C@@H]2[C@@H](C=C(C)C)C2(C)C)CC1=O               0.0
 5  N#CC(CCc1ccc(Cl)cc1)(Cn1cncn1)c1ccccc1 (stereo not drawn)               0.0
 6                    N#Cc1cc(Br)c(O)c(Br)c1               1.0
 7  CCCC1COC(Cn2cncn2)(c2ccc(Cl)cc2Cl)O1 (stereo not drawn)               1.0
 8                          CCCCNC(=O)OCC#CI               1.0
 9  CCCCC(CC)COC(=O)c1ccccc1C(=O)OCC(CC)CCCC (stereo not drawn)               0.0
10                      O=C(O)c1nc(Cl)ccc1Cl               0.0
11              CCCCOC(=O)c1ccccc1C(=O)OCCCC               0.0
12                CC1=C(C(=O)Nc2ccccc2)SCCO1               1.0

----------
Read-out: Low-density lipoprotein receptor (LDLR), LDLR (gene 3949)
Assay: BSK_CASM3C_LDLR: BioMAP Diversity Plus: CASM3C Assay for Low-density lipoprotein receptor (LDLR) Biomarker Activity (AID 2283045);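 also: LDLR protein level on the cell surface quantified by ELISA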
Details: primary human coronary artery smooth muscle cells; actives raise or lower the signal
Calls of active or inactive are those of the source. How the source made its calls: active means hit-call score of the fitted dose curve at least 0.9, where 1 is the maximum; inactive means score below 0.9.
Outcome codes: true = active, false = inactive

>>> df
                                    compound  class_assignment
 0         COP(N)(=O)SC (stereo unspecified)             false
 1  COC(=O)N(OC)c1ccccc1COc1ccn(-c2ccc(Cl)cc2)n1             false
 2                      O=C(O)c1nc(Cl)ccc1Cl             false
 3              CON(C)C(=O)Nc1ccc(Cl)c(Cl)c1             false
 4                      CCNc1nc(Cl)nc(NCC)n1             false
 5  CC(Oc1ccc(Cl)cc1Cl)C(=O)O (stereo unspecified)             false
 6            COP(=S)(OC)Oc1nc(Cl)c(Cl)cc1Cl             false
 7                          CCCCNC(=O)OCC#CI             false
 8         CCCCNC(=O)n1c(NC(=O)OC)nc2ccccc21             false
 9      CCOP(=S)(OCC)SCn1c(=O)oc2cc(Cl)ccc21             false
10  CC1COC(Cn2cncn2)(c2ccc(Oc3ccc(Cl)cc3)cc2Cl)O1 (stereo unspecified)             false
11  CC(C)(C)c1ccc(CSc2cnn(C(C)(C)C)c(=O)c2Cl)cc1              true
12  CCc1nn(C)c(C(=O)NCc2ccc(C(C)(C)C)cc2)c1Cl             false
13               O=C(Nc1ccccc1)Nc1ccnc(Cl)c1             false
14                    N#Cc1cc(Br)c(O)c(Br)c1             false
15  CCCCC(CC)COC(=O)c1ccccc1C(=O)OCC(CC)CCCC (stereo unspecified)             false
16  CC(C)Oc1cc(-n2nc(C(C)(C)C)oc2=O)c(Cl)cc1Cl             false
17  OC(c1ccc(Cl)cc1)(c1cncnc1)c1ccccc1Cl (stereo unspecified)             false
18    COc1ccc(C(c2ccc(OC)cc2)C(Cl)(Cl)Cl)cc1             false
19                 COC(=O)C=C(C)OP(=O)(OC)OC             false
20  Cc1c(F)c(F)c(COC(=O)C2C(/C=C(\Cl)C(F)(F)F)C2(C)C)c(F)c1F (stereo unspecified)             false
